I'd be grateful if you could share measured CC50 at 24 h for these entries.
Experiment: Cytotoxicity against human MOLT3 cells after 24 hrs by MTS assay
Assay type: cell-based, MOLT-3
Supply the numeric figure in µg/mL, leaving out any unit text.

Form field: reported CC50 at 24 h of Nc1ccn([C@@H]2CS[C@H](CO)O2)c(=O)n1
5.94

For the compound CC1(C)O[C@H]2CC(=O)OC[C@]23[C@H]2CC[C@@]4(C)[C@H](c5ccoc5)OC(=O)[C@H]5O[C@]54[C@]2(C)C(=O)C[C@@H]13 , what CC50 at 24 h is on record?
202

What value of measured CC50 at 24 h is listed for Cc1cn([C@H]2C[C@H](N=[N+]=[N-])[C@@H](CO)O2)c(=O)[nH]c1=O ?
3.24

Find the recorded CC50 at 24 h belonging to Cc1ccnc2c1NC(=O)c1cccnc1N2C1CC1 and report it.
20.1

Requested read-out: CC50 at 24 h. Entry: CC(=O)O[C@H]1CC(=O)OC(C)(C)[C@@H]2CC(=O)[C@]3(C)[C@H](CC[C@@]4(C)[C@@H](c5ccoc5)OC(=O)[C@H]5O[C@]543)[C@@]12C
756
